# measured.target: T1, factor VIIIa A1/A3C1C2 dimer, wild type (human, UniProt P00451 20-391; P00451 1709-2351)
# T1 sequence 1: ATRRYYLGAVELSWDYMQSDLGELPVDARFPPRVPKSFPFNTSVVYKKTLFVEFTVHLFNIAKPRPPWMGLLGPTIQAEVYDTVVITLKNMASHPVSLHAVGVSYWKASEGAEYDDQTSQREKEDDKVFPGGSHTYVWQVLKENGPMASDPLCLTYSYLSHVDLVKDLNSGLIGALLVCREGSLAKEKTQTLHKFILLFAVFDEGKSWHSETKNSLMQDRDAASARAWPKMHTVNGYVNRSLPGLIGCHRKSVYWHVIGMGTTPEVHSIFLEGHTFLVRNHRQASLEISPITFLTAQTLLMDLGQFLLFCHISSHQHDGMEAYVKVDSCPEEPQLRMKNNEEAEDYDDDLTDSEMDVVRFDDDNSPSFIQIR
# T1 sequence 2: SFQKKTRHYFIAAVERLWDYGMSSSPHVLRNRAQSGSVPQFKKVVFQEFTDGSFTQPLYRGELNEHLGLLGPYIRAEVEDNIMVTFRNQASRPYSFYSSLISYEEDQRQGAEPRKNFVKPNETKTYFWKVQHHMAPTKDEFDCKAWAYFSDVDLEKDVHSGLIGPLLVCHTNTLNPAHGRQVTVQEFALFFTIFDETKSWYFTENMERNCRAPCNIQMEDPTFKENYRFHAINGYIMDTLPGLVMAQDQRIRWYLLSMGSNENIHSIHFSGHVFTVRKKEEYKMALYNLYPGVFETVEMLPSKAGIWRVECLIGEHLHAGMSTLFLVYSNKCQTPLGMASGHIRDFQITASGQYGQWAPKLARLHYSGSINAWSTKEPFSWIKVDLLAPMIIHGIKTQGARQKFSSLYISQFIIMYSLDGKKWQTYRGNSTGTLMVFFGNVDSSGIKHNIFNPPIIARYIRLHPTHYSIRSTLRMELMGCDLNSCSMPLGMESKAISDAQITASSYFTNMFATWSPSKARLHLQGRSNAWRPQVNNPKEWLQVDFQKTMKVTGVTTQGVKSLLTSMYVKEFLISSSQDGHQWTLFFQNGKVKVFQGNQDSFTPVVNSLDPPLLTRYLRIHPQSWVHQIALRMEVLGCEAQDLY
# run.description: cell-based or functional assay
property.measured: Factor VIIIa decay rate, FIXa (+) (min⁻¹)
One number for each entry, in min⁻¹.

factor VIIIa A2 subunit, E683A (other) SVAKKHPKTWVHYIAAEEEDWDYAPLVLAPDDRSYKSQYLNNGPQRIGRKYKKVRFMAYTDETFKTREAIQHESGILGPLLYGEVGDTLLIIFKNQASRPYNIYPHGITDVRPLYSRRLPKGVKHLKDFPILPGEIFKYKWTVTVEDGPTKSDPRCLTRYYSSFVNMERDLASGLIGPLLICYKESVDQRGNQIMSDKRNVILFSVFDENRSWYLTENIQRFLPNPAGVQLEDPEFQASNIMHSINGYVFDSLQLSVCLHEVAYWYILSIGAQTDFLSVFFSGYTFKHKMVYEDTLTLFPFSGETVFMSMANPGLWILGCHNSDFRNRGMTALLKVSSCDKNTGDYYEDSYEDISAYLLSKNNAIEPR :: 0.0263

We next turn to a different binder, shown below.
IN: Fill in: Factor VIIIa decay rate, FIXa (+) of factor VIIIa A2 subunit, S695A (other) SVAKKHPKTWVHYIAAEEEDWDYAPLVLAPDDRSYKSQYLNNGPQRIGRKYKKVRFMAYTDETFKTREAIQHESGILGPLLYGEVGDTLLIIFKNQASRPYNIYPHGITDVRPLYSRRLPKGVKHLKDFPILPGEIFKYKWTVTVEDGPTKSDPRCLTRYYSSFVNMERDLASGLIGPLLICYKESVDQRGNQIMSDKRNVILFSVFDENRSWYLTENIQRFLPNPAGVQLEDPEFQASNIMHSINGYVFDSLQLSVCLHEVAYWYILSIGAQTDFLSVFFSGYTFKHKMVYEDTLTLFPFSGETVFMSMENPGLWILGCHNADFRNRGMTALLKVSSCDKNTGDYYEDSYEDISAYLLSKNNAIEPR is ___
OUT: 0.0085
